These entries and their values trace back to ChEMBL document CHEMBL1149498.

target_or_test_system: Glutamate receptor 1 (Rattus norvegicus, UniProt P19490)
Sequence (P19490 whole entry): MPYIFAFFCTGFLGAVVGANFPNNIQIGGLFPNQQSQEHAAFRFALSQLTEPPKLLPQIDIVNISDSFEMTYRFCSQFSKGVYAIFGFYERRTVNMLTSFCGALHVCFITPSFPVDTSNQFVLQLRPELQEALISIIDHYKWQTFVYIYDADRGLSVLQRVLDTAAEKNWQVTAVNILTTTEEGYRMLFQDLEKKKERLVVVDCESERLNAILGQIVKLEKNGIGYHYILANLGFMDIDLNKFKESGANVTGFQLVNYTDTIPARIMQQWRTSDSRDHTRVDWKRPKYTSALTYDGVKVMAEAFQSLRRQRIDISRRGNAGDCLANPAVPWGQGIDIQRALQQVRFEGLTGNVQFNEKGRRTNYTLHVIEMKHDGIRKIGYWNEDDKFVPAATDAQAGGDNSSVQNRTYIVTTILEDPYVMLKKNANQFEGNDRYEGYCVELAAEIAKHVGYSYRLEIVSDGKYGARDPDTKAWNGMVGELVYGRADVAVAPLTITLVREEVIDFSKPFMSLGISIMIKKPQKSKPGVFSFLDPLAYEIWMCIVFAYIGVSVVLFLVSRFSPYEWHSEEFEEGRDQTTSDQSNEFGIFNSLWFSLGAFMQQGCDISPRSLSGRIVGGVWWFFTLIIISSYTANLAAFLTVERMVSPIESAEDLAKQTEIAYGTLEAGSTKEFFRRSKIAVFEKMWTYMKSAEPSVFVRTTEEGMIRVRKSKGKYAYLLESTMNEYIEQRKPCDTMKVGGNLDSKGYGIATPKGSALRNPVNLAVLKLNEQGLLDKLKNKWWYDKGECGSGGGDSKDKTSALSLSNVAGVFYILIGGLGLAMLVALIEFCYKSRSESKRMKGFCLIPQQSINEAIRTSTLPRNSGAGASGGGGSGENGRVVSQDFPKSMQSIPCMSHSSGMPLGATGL
assay_name: Antagonist activity against rat GluR1 flop expressed in Xenopus laevis oocyte assessed as inhibition of glutamate-induced current at holding potential -80 mV by two electrode voltage clamp method
Type: functional
parameter_measured: pKi
Note: pKi values are expressed as the negative base-10 logarithm of concentration in M.

**Q:** So what's the measured pKi for this one? CCCC(=O)N[C@@H](Cc1ccc(O)cc1)C(=O)NCCCCCNCCCCCN
**A:** 7.02

**Q:** So what's the measured pKi for this one? CCCC(=O)N[C@@H](Cc1ccc(O)cc1)C(=O)NCCCCCNCCCCCCCCCCN
**A:** 6.74

**Q:** So what's the measured pKi for this one? CCCC(=O)N[C@@H](Cc1ccc(O)cc1)C(=O)NCCCCCNCCCCCCN
**A:** 8.52

**Q:** So what's the measured pKi for this one? CCCC(=O)N[C@@H](Cc1ccc(O)cc1)C(=O)NCCCCCCCCNCCCCCCN
**A:** 7.11

**Q:** So what's the measured pKi for this one? CCCC(=O)N[C@@H](Cc1ccc(O)cc1)C(=O)NCCCCCCCNCCCCN
**A:** 6.77
